Molecular target: ERα in MCF7 cells (Homo sapiens (Human), UniProt P03372)
Sequence (P03372 whole entry): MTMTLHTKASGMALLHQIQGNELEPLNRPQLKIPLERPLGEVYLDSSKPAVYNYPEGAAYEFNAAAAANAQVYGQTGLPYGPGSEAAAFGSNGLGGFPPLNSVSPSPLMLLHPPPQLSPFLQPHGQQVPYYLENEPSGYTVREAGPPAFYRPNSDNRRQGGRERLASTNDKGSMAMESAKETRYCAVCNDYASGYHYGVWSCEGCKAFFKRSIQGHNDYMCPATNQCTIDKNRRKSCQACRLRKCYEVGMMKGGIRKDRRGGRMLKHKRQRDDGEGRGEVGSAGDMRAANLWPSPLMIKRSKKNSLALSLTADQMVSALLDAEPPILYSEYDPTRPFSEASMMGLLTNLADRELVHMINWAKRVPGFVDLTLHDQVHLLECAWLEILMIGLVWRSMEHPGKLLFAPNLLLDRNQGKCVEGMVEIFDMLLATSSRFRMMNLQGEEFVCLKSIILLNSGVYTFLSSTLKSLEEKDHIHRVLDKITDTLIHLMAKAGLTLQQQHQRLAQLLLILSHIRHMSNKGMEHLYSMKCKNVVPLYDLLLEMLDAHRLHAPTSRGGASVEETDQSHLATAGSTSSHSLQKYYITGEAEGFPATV
Assay: Test C: estrogen receptor degradation activity, ERα in cell western assay in MCF7 cells
Type: cell-based
Conditions: at 3 μM, 4 hours, relative to fulvestrant
measurementName: % Degradation at 3 μM (%)
# value in %; strip the unit string

Would you please look over these solved cases?
Tested system ERα in MCF7 cells (Homo sapiens (Human), UniProt P03372); % Degradation at 3 μM recorded for `Oc1ccc2c(c1)SCC(c1ccc(OC(F)F)c(F)c1)=C2c1ccc(O[C@H]2CCN(CCCF)C2)cc1` was 91

Tested system ERα in MCF7 cells (Homo sapiens (Human), UniProt P03372); % Degradation at 3 μM recorded for `Oc1ccc2c(c1F)OCCC(c1ccc3cc[nH]c3c1)=C2c1ccc(O[C@H]2CCN(CCCF)C2)cc1` was 83

New cases:
Tested system ERα in MCF7 cells (Homo sapiens (Human), UniProt P03372); % Degradation at 3 μM recorded for `Oc1ccc2c(c1F)OCCC(c1ccc3c(c1)NCC3)=C2c1ccc(O[C@H]2CCN(CCCF)C2)cc1` was 88

Tested system ERα in MCF7 cells (Homo sapiens (Human), UniProt P03372); % Degradation at 3 μM recorded for Cc1ccc(C2=C(c3ccc(O[C@H]4CCN(CCCF)C4)cc3)c3ccc(O)cc3[S+]([O-])C2)c(F)c1 (single isomer, unassigned) [Example 70] was 73

====

Target: His6-ERα298-554 Y537S mutant (ERα ligand-binding domain) (Homo sapiens (Human), UniProt P03372, Y537S)
Sequence (P03372 298-554 Y537S): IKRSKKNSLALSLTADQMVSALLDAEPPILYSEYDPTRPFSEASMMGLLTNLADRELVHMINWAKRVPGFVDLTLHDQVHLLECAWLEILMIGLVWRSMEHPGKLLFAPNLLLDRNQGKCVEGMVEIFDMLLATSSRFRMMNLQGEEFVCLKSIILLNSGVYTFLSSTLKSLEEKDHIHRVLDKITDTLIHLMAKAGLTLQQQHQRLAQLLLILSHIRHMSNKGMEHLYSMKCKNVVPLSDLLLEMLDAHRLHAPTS
Test: Test A: biochemical antagonist activity, LanthaScreen TR-FRET ERα coactivator assay, Y537S mutant
Conditions: asterisk (*): protocol using 10 nM estradiol; read-out: Antagonism Y537S IC50
measurementName: log10 of IC50 (log10 of the value in µM)
Hi team, quick reminder: these entries are log10 of IC50 (µM).

Would you please look over these solved cases?
Entry under test: CC1(C)Cc2cc(C3=C(c4ccc(O[C@H]5CCN(CCCF)C5)cc4)c4ccc(O)cc4SC3)ccc2O1 [Example 32] . Its log10 of IC50 was -0.77

Entry under test: Oc1ccc2c(c1)OCCC(c1ccc(OCCN3CCCC3)cc1)=C2c1ccc(O[C@H]2CCN(CCCF)C2)cc1 [Example 147] . Its log10 of IC50 was 0.58

Entry under test: Oc1ccc2c(c1)CCCC(c1ccc(Cl)cc1Cl)=C2c1cnc(O[C@H]2CCN(CCCF)C2)nc1 [Example 238] . Its log10 of IC50 was -1.48

Entry under test: Oc1ccc2c(c1)CCCC(c1ccc(OC(F)(F)F)cc1)=C2c1ccc(O[C@H]2CCN(CCCF)C2)nc1 [Example 253] . Its log10 of IC50 was -1.02

Entry under test: CCN(CC)c1ccc(C2=C(c3ccc(O[C@H]4CCN(CCCF)C4)cc3)c3ccc(O)cc3SC2)c(F)c1 [Example 74] . Its log10 of IC50 was 0.38

We next turn to a different compound, shown below.
Entry under test: CCOc1ccc(C2=C(c3ccc(O[C@H]4CCN(CCCF)C4)cc3)c3ccc(O)cc3SCC2)c(F)c1Cl [Example 221] . Its log10 of IC50 was -0.88

====

Biological target: His6-ERα298-554 D538G mutant (ERα ligand-binding domain) (Homo sapiens (Human), UniProt P03372, D538G)
Sequence (P03372 298-554 D538G): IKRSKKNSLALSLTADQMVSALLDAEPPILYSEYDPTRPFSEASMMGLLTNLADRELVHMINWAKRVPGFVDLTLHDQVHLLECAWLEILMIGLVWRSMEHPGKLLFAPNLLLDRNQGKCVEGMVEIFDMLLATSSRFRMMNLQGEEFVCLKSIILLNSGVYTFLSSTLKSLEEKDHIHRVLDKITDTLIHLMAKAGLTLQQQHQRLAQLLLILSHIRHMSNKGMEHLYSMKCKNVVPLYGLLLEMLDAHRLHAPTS
Assay: Test A: biochemical antagonist activity, LanthaScreen TR-FRET ERα coactivator assay, D538G mutant
Details: asterisk (*): protocol using 10 nM estradiol; read-out: Antagonism D538G IC50
pIC50: −log10 of the molar value.
Think of 6 as a floor: if pIC50 stands on it or above, it is True; beneath it, False.

Please review the entries below; each comes with its answer.
Prompt: Does pIC50 meet or surpass 6 for `CCOc1ccc(C2=C(c3ccc(O[C@H]4CCN(CCCF)C4)cc3)c3cc(F)c(O)cc3OCC2)c(C)c1` ?
Completion: True

Prompt: Does pIC50 meet or surpass 6 for `CCOc1ccc(C2=C(c3cnc(O[C@H]4CCN(CCCF)C4)nc3)c3ccc(O)cc3CCC2)c(F)c1F` ?
Completion: True

Prompt: Does pIC50 meet or surpass 6 for `Oc1cc2c(cc1F)C(c1ccc(O[C@H]3CCN(CCCF)C3)cc1)=C(c1ccc3occc3c1)CCO2` ?
Completion: True

Now for a further compound.
Prompt: Does pIC50 meet or surpass 6 for `Oc1ccc2c(c1)SCC(c1ccc(O)nc1F)=C2c1ccc(O[C@H]2CCN(CCCF)C2)cc1` ?
Completion: True
